Recorded values, source patent US12297203B2.

tested on: JAK1/3 phosphorylation of its substrate, STAT5, at Y694; assay: JAK1/3 target modulation assay (IL-2 stimulated STAT5 Y694 phosphorylation in PBMC); format: cell-based; conditions: Homo sapiens, PBMC, Primary human peripheral blood mononuclear cells, IL-2 25 ng/mL; read-out: IL2-STAT5 Inh. IC50
Collected IC50 values appear next to each entry.
measuredParameter: IC50

C=C(C)C(=O)N1C[C@H](Nc2ncnc3[nH]cc([C@@H]4CC4(F)F)c23)CC[C@@H]1C (single isomer, unassigned); > 1 µM
C=CC(=O)N1C[C@H](Nc2ncnc3[nH]cc(CC4CC4)c23)CC[C@@H]1CC (single isomer, unassigned); > 1 µM
C=CC(=O)N1CCC[C@@H](Nc2ncnc3[nH]cc([C@@]45CCC[C@@H]4C5(F)F)c23)C1 (single isomer, unassigned); 0.1 to 1 µM
C=CC(=O)N1CCC[C@@H](Nc2ccnc3[nH]cc(CC4CC4)c23)C1; 0.1 to 1 µM
